measured.target: T1, corticotropin releasing factor 2 receptor
T1 sequence (Q13324 whole entry, species assumed, looked up): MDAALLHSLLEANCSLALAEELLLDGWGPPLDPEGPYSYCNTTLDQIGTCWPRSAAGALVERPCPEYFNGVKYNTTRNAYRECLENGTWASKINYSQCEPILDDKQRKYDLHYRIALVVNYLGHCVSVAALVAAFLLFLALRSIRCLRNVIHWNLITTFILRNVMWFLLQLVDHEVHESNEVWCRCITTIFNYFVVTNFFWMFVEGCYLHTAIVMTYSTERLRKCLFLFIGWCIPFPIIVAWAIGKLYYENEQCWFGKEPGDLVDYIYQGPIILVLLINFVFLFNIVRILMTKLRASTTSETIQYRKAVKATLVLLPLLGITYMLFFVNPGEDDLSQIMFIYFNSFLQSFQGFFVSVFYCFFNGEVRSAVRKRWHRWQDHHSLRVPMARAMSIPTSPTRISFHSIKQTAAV
experimental.protocol: cell-based or functional assay
quantity.name: CRF2R EC50 (nM)
Reply with just the number (in nM).

>  <binder>
ZGPPISIDLPIHLLRKMIEIEKQEKEKQQAANNRLLLDTI (C-terminal amide) [SEQ ID NO 77]

>  <CRF2R EC50, nM>
43.4

$$$$

Recorded CRF2R EC50 (binder ZGPPISIDLPFELLRKMIEIEKQEKEKQQAANNRLLLDTI (C-terminal amide) [SEQ ID NO 67] ): 10
